# Assay Target: Tyrosine-protein kinase receptor UFO (Homo sapiens)
# Sequence (P30530 whole entry): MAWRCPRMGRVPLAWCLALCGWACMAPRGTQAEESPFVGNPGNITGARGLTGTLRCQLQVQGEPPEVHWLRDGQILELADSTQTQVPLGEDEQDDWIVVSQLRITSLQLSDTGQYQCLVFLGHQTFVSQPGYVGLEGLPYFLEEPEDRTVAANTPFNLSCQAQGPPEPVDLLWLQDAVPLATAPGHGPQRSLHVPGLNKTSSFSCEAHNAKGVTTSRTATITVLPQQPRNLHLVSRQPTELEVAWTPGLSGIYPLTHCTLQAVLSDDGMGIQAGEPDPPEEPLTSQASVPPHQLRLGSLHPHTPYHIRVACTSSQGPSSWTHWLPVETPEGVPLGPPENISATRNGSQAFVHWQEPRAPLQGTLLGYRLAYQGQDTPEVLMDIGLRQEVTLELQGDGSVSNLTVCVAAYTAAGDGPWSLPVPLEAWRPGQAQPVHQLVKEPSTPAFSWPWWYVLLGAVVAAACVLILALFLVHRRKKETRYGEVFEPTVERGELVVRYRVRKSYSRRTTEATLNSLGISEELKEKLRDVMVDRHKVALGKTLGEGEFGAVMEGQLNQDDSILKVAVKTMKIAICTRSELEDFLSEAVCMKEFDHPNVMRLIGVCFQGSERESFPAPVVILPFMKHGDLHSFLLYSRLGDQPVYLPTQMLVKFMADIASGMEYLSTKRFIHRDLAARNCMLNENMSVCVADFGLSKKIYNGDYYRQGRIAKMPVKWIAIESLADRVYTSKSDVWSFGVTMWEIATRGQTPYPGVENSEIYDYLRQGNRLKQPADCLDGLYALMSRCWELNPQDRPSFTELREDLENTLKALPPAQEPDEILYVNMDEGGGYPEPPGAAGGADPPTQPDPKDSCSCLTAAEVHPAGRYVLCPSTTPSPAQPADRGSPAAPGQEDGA
# Protocol Notes: Kinase Assay: The ability of compounds to inhibit the kinase activity of recombinant human baculovirus-expressed AXL was measured by homogeneous TRF (HTRF) using Cisbio's KinEASE assay system in white 384-well Optiplates. Assay buffer contained 1 mM DTT, 2 mM MnCl2, 2% DMSO, 50 nM supplement enzymatic buffer, and 1× enzymatic buffer. A 2× concentration of tyrosine kinase (TK) substrate-biotin/ATP mixture made in assay buffer was added to plates at 10 μL/well using the Multidrop Combi (Thermo Fisher Scientific, Waltham, Mass.). […] Compounds (100 nL), diluted in 100% DMSO on the Biomek FX, (Beckman Coulter, Inc., Brea, Calif.), were transferred to the assay plates using the Biomek FX pintool (2.5% final DMSO in assay). A 2× concentration (final=12 ng/mL) of GST-AXL (diluted in assay buffer) was added to plates at 10 uL/well using the Multidrop Combi. Plates were sealed, briefly shaken and incubated at 25° C. for 30 minutes. […] Plates were sealed, briefly shaken and incubated at 25° C. for 1 hour.
The entries below are paired with their reported IC50.

compound_structure_string=CCn1cc(C(=O)Nc2ccc(Oc3ccnc4cc(OC)c(OC)cc34)c(Cl)c2)c(=O)n(-c2ccc(F)cc2)c1=O assay_target="Tyrosine-protein kinase receptor UFO (Homo sapiens)" result_type=IC50 result="< 0.01 µM"
compound_structure_string=C=CCn1cc(C(=O)Nc2ccc(Oc3ccnc4cc(OC)c(OC)cc34)c(F)c2)c(=O)n(CC=C)c1=O assay_target="Tyrosine-protein kinase receptor UFO (Homo sapiens)" result_type=IC50 result="< 0.01 µM"

// switching to the query molecule
(Q) Request the reported IC50 associated with CCn1nc(C(=O)Nc2ccc(Oc3ccnc4cc(OC)c(OC)cc34)cn2)c(=O)n(-c2ccc(F)cc2)c1=O
(A) < 0.01 µM
